assay overview: protein stability index of a GFP-peptide fusion (GPS, HEK-293T) (PSI 1-6); higher = more stable;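 further: 24-mer peptide tiles fused after GFP, lentivirally expressed, FACS-sorted into six equal bins by GFP/DsRed ratio, decoded by Illumina sequencing, PSI is the read-weighted mean bin number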
stated conditions: treatment: MLN4924 1 uM, 8 h; c terminus: a fixed tail appended
Known protein stability index of a selection of sequences
The reply should be a number, written without any unit.

1) RFTTSKLQSFEDLASISTYGFRGE [MLH1] | 3.12
2) WELHSLRHCDDDGRTENGALAPKQ [ZNF24] | 4.95
3) LGSGPDRELRKPEEPENGEPTAAA [PWWP2B] | 5.25
4) QGMIQLALSGASQPGPSGAPAQRA [RETREG3] | 4.32

Enquiry: Entry VPLGPLGETYCEEHGEKIYFFCEN [TRIM15] has what protein stability index?
Return: 3.54

Enquiry: Entry LLSSGFEIDTPDKFGRTCLHAAAA [ANKRD44] has what protein stability index?
Return: 2.95

Enquiry: Entry CQEYLARNARIVHLVEETRIHVLP [CPXM2] has what protein stability index?
Return: 2.49

Enquiry: Entry EEWNALQSVENCPEDLAQLEELID [RPAIN] has what protein stability index?
Return: 5.29

Enquiry: Entry SLISGCPNIQEAVEGAMHIQECVP [CRYL1] has what protein stability index?
Return: 3.98

Enquiry: Entry ISLTCVSVAFAVAWFLPMPQKSLF [SLC19A2] has what protein stability index?
Return: 3.19

Enquiry: Entry DSKPESALGAPSKSPSSPQAAFTQ [TBX5] has what protein stability index?
Return: 5.21

Enquiry: Entry FLVANFSQIETLTSVFQKKLCTAH [MATN2] has what protein stability index?
Return: 2.52

Enquiry: Entry DSTNVEAAFQTILTEIYRIVSQKQ [RAB11A] has what protein stability index?
Return: 2.46

Enquiry: Entry CEMDWSDKMEAYNIDETCGRHHSQ [TEKT4] has what protein stability index?
Return: 4.56

Enquiry: Entry LYTPSNEHFGIVPLEAMYMQCPVI [ALG2] has what protein stability index?
Return: 2.39

Enquiry: Entry YTFVPWLLSFKRGSALEEKENKIL [TNFSF13B] has what protein stability index?
Return: 2.22

Enquiry: Entry LCVILYKKVHKGTVPKNDADDESE [GLT8D2] has what protein stability index?
Return: 2.31

Enquiry: Entry KEEVRAALEQREQDAVDQVKVIMD [TRIM29] has what protein stability index?
Return: 5.39

Enquiry: Entry DGIDRWIKEIDEHAPGVPRILVGN [RAB40C] has what protein stability index?
Return: 3.59

Enquiry: Entry PQARMREENMERIGEEVRQLMEKL [BEX1] has what protein stability index?
Return: 4.52

Enquiry: Entry EDHGLVTCSADHLIILWKNGERES [WDR41] has what protein stability index?
Return: 2.74

----------
assay overview: protein stability index of a GFP-peptide fusion (GPS, HEK-293T) (PSI 1-6); higher = more stable
stated conditions: treatment: MLN4924 1 uM, 8 h; c terminus: a fixed tail appended
Known protein stability index of a selection of sequences
The reply should be a number, written without any unit.

Field: example entries. Status: answers known.
1) LPPGFVLKKDKKKEEKEDEISLED [ZC3H15] | 5.45
2) CTNIFYEEENPGGCEDEYLVNPTC [ZER1] | 4.36
3) AENYLSGGGPGDGGGADTGTGGEE [FBXO33] | 5.55
4) HSMKPHPAITATLLDFMCRIIPNF [INTS3] | 3
5) GCANNLLVHHRAAHSNEILIFSVQ [KLHDC2] | 2.67

Enquiry: Entry NTRNYEGQTPLAVSISISGSSRPC [ASB7] has what protein stability index?
Return: 3.5

Enquiry: Entry SKRMGPMTVVRMDASVQPGPFRTL [RHOBTB1] has what protein stability index?
Return: 2.91

Enquiry: Entry LELLDKIERSKIVSTMRCKTRQKS [PPEF2] has what protein stability index?
Return: 3.73

----------
Known protein stability index of a selection of sequences
assay overview: protein stability index of a GFP-peptide fusion (GPS, HEK-293T) (PSI 1-6); higher = more stable
stated conditions: treatment: MLN4924 1 uM, 8 h; c terminus: a fixed tail appended
The reply should be a number, written without any unit.

Field: example entries. Status: answers known.
1. GGLGTPLRLPMLNTEVVQVAAGRT [NEK8] | 4.06
2. HSGSVVGAGLPQFQSISLRKIQFN [CLCN6] | 3
3. YLNSFLHQRIPQSVRILGSLVAIL [SLC29A1] | 2.23

Enquiry: Entry SGFVGSGGWFCEGSFNGSEKETMQ [KRT36] has what protein stability index?
Return: 3.65

----------
Known protein stability index of a selection of sequences
assay overview: protein stability index of a GFP-peptide fusion (GPS, HEK-293T) (PSI 1-6); higher = more stable
stated conditions: treatment: MLN4924 1 uM, 8 h; c terminus: a fixed tail appended

1) FVFFVLLNMFLAIINDTYSEVKEE [PKD2L1] | 3.12

Enquiry: Entry GILGFNSAEWFITAVGAILAGGLC [ACSBG2] has what protein stability index?
Return: 3.62

Enquiry: Entry YFFCENDAEFLCVFCREGPTHQAH [TRIM15] has what protein stability index?
Return: 2.33

----------
assay overview: protein stability index of a GFP-peptide fusion (GPS, HEK-293T) (PSI 1-6); higher = more stable
stated conditions: treatment: MLN4924 1 uM, 8 h; c terminus: a fixed tail appended
Known protein stability index of a selection of sequences
The reply should be a number, written without any unit.

Field: example entries. Status: answers known.
1. AFLELPHGSGGSGYPAAPPAVPFA [TBX6] | 2.69
2. NESWIKSHFSRLSEEKLALDNNAS [C10orf62] | 4.29
3. TPEELTILGETQEEEDEILPRKDY [CLCN6] | 5.54
4. ESMYGDFQEAMTHLQHKLICTRKP [TENT5D] | 3.58
5. ICPLKERRFGAVACGVAMELYVFG [GAN] | 2.96
6. ILGETQEEEDEILPRKDYESLDYD [CLCN6] | 5.18

Enquiry: Entry YLEKYYNLKNDGRQVEKRRNSGPV [MMP1] has what protein stability index?
Return: 3.27

Enquiry: Entry LSETADPFFVLNSDVICDFPFQAM [GMPPB] has what protein stability index?
Return: 2.6

Enquiry: Entry LLIEGRSVNEHTEEGESLLCLACS [ANKRD17] has what protein stability index?
Return: 3.27

Enquiry: Entry HLSPLVVHRQLSHLYAEPQKSPWC [ESR2] has what protein stability index?
Return: 2.79

Enquiry: Entry SVIKDHHTRSITSCCFDPDSQRVA [WDR88] has what protein stability index?
Return: 3.41

Enquiry: Entry DLVDSLKLAVFMWLMTYVGAVFNG [RTN3] has what protein stability index?
Return: 3.2

----------
Known protein stability index of a selection of sequences
assay overview: protein stability index of a GFP-peptide fusion (GPS, HEK-293T) (PSI 1-6); higher = more stable
stated conditions: treatment: DMSO; c terminus: a fixed tail appended
The reply should be a number, written without any unit.

1) HTVPDFHLSSPAKNFFKKAAAALF [PLK2] | 2.74
2) LCQKSNDISIHHFTCDEENVFAAV [WDR41] | 2.84
3) NVAATGISQYEDDLPPPPADPVLD [APBB1IP] | 5.36
4) DPGPEPEEEPGVRNGMASEGLNSS [PSD2] | 5.58
5) SMAKEVIAKELSKTYQETPEIDMF [ZBED1] | 4.11
6) LLAAQVQLQCSPAELQAELLHSQA [FBF1] | 2.56
7) TKKKGVKRPARLHTKPSQAPAVEV [NOP53] | 4.36
8) GGGYSSVRYSDCCERVVINVSGLR [KCNA4] | 2.23
9) PLLSGVAQEVSPCGPPSLGAVLAL [MFSD9] | 2.4
10) FLVANFSQIETLTSVFQKKLCTAH [MATN2] | 2.6

Enquiry: Entry ENSGILQGKLIKRQRLAKNDRGDH [EFHC1] has what protein stability index?
Return: 3.85

Enquiry: Entry VKAKEQIENYKKQTRNGLGKDHEI [FUT8] has what protein stability index?
Return: 4.59

Enquiry: Entry DQDTLAPLPHPGAAPWPMAFPYQY [DVL3] has what protein stability index?
Return: 3.15

Enquiry: Entry EAITDEERAPTATFHDSKHNIVHV [WDFY2] has what protein stability index?
Return: 4.72

Enquiry: Entry RKGCLRFQLPERGSRLCLYEDGTE [DFFB] has what protein stability index?
Return: 3.34

Enquiry: Entry LYELASLKRAFEAANLPALVLKIM [NEK8] has what protein stability index?
Return: 2.33

Enquiry: Entry PSMVSGGYVANSSNCISGVCSVRG [KRT71] has what protein stability index?
Return: 3.35

Enquiry: Entry RKSLLVVHQRTHTGEKPHTCSECG [ZNF649] has what protein stability index?
Return: 3.98

Enquiry: Entry DLTFAPDGSLILVSASRDKTLRVW [WSB1] has what protein stability index?
Return: 2.32

Enquiry: Entry RSDLYSSGRDRVGRQERGLPPSME [RBMX] has what protein stability index?
Return: 4.41

Enquiry: Entry RSLSACNKRVGMYLEGFDPFNQST [DLC1] has what protein stability index?
Return: 2.85
